Molecular target: UniProt:Q8IXJ6
Sequence (Q8IXJ6 whole entry): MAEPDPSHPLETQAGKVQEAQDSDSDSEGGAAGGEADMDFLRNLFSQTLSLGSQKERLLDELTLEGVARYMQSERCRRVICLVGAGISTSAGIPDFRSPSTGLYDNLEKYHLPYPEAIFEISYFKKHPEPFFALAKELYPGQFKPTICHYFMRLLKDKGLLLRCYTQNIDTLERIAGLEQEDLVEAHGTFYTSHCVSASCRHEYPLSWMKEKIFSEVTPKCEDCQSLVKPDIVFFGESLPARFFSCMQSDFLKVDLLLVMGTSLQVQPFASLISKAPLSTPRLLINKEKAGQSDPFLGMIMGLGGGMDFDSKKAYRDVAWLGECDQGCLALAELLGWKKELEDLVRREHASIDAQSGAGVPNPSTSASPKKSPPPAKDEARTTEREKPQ
Test: Inhibition of human recombinant N-terminally His6-tagged SIRT2 after 4 hrs by homogeneous fluorescent deacetylase assay
pIC50: −log10 of the molar value.
Observation Type: pIC50

| Compound Structure String | Target Or Test System | Observation Type | Reported |
| --- | --- | --- | --- |
| Nc1ncnc2c1nc(-c1ccccc1)n2[C@@H]1O[C@H](COP(=O)(O)O)[C@@H](O)[C@H]1O | UniProt:Q8IXJ6 | pIC50 | 4.54 |
| NC(=O)c1ccc[n+]([C@@H]2O[C@H](COP(=O)([O-])OP(=O)(O)OC[C@H]3O[C@@H](n4c(Br)nc5c(N)ncnc54)[C@H](O)[C@@H]3O)[C@@H](O)[C@H]2O)c1 | UniProt:Q8IXJ6 | pIC50 | 4.55 |
| COc1ccc(-c2nc3c(N)ncnc3n2[C@@H]2O[C@H](COP(=O)(O)OP(=O)([O-])OC[C@H]3O[C@@H]([n+]4cccc(C(N)=O)c4)[C@H](O)[C@@H]3O)[C@@H](O)[C@H]2O)cc1 | UniProt:Q8IXJ6 | pIC50 | 4.37 |
